Below: a set of entries, each annotated with reported IC50.
Biological target: Type-1 angiotensin II receptor B (Rattus norvegicus)
Sequence (P29089 whole entry): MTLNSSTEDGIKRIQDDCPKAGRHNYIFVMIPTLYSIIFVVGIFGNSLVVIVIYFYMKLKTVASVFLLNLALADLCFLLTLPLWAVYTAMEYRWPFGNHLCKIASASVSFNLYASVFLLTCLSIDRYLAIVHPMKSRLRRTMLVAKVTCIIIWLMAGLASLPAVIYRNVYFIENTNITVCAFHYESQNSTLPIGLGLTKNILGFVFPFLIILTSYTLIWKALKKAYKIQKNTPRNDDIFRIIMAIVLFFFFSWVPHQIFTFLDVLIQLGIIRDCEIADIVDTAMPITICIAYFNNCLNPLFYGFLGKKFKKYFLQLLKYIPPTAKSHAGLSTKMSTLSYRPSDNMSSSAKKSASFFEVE
Experiment: Binding affinity against angiotensin II receptor in rat smooth muscle cell preparations
Assay endpoint: IC50 (nM)

>>> df
                                   molecule  assay_endpoint  readout_number
0  CCCCc1nc(Cl)c(CO)n1Cc1ccc2cc(-c3nn[nH]n3)ccc2c1            IC50             600
1  CCCCc1nc(CO)c(Cl)n1Cc1ccc2c(c1)CCC(C)(C(=O)O)C2 (configuration not stated)            IC50            2800
2  CCCCc1nc(Cl)c(CO)n1Cc1cccc2cc(-c3nnn[nH]3)ccc12            IC50            4100
3  CCCCc1nc(Cl)c(CO)n1Cc1ccc2c(c1)CCC(c1nnn[nH]1)C2 (configuration not stated)            IC50            5400
4  CCCCc1nc(CO)c(Cl)n1Cc1ccc2c(c1)CCC(C(=O)O)C2 (configuration not stated)            IC50            1100
5  CCCCc1nc(Cl)c(CO)n1Cc1ccc2c(c1)CCC(C(=O)O)C2 (configuration not stated)            IC50            8900
6  CCCCc1nc(Cl)c(CO)n1Cc1cccc2c(-c3nn[nH]n3)cccc12            IC50            1100

---

Let's look at some compounds and their measured IC50.
Target: Type-1 angiotensin II receptor B (Rattus norvegicus)
Assay: Binding affinity against Angiotensin II receptor in rat smooth muscle cell preparations
Assay endpoint: IC50 (µM)

                                smiles_code  readout_number
0  CCCCc1nc(Cl)c(CO)n1Cc1ccc2ccc(-c3nn[nH]n3)cc2c1              20
1  CCCCc1nc(CO)c(Cl)n1Cc1ccc2cc(-c3nnn[nH]3)ccc2c1             0.2
